- Protocol Notes: Human HepG2 cell viability assay in 384 well format
- Assay type: toxicity, cell-based
- Set-up: dose 125 nL, time 70.5 hour; concentration not given beside the values
- Test Parameters: HepG2 cells, read-out: Inhibition
List of cytotoxicity at 70.5 h values.
Measured Parameter: cytotoxicity at 70.5 h (%)

> print(dat)
                                    molecule      measured.parameter  measurement
 1  Cc1cc(C(=O)N2C[C@@H]3CCCO[C@@H]3[C@H](N3CCOCC3)C2)c(C)[nH]1  cytotoxicity at 70.5 h        -12.4
 2  Cn1cc(CN2C[C@H]3CCC[C@@]3(COc3cccnc3)C2)cn1  cytotoxicity at 70.5 h        -2.32
 3  CCCc1noc(CCC(=O)N2CCN(C)CC2c2ccccc2)n1 (stereo unspecified)  cytotoxicity at 70.5 h          -15
 4  COc1ccc2nc(C3CC3)cc(C(=O)NCCc3nnc[nH]3)c2c1  cytotoxicity at 70.5 h        -3.73
 5  COc1ccccc1C1Cn2c(C)cnc2CN1Cc1c[nH]nc1C (stereo unspecified)  cytotoxicity at 70.5 h        -12.2
 6  COC(=O)c1sc2cccc(F)c2c1CNC(=O)C1CCCO1 (stereo unspecified)  cytotoxicity at 70.5 h         6.87
 7  Cc1cc(COc2ccc(OC3CCCCNC3=O)cc2)on1 (stereo unspecified)  cytotoxicity at 70.5 h        -3.96
 8  Cc1cnn(CC(C)Nc2nc(C)cc(N(C)C)n2)c1 (stereo unspecified)  cytotoxicity at 70.5 h         -6.1
 9  O=C(c1cscn1)N1C[C@@H]2C[C@@H](c3nnc(C4CC4)o3)O[C@@H]2C1  cytotoxicity at 70.5 h        -8.28
10      CNc1cc(C)nc(-c2cc(NC)nc3[nH]ccc23)n1  cytotoxicity at 70.5 h        -8.84
11   COc1ncccc1C(=O)N1CCc2c(ncnc2N2CCOCC2)C1  cytotoxicity at 70.5 h        -3.85
